STUDY SYSTEM: Muscarinic acetylcholine receptor M2 (Homo sapiens, UniProt P08172)
Sequence (P08172 whole entry): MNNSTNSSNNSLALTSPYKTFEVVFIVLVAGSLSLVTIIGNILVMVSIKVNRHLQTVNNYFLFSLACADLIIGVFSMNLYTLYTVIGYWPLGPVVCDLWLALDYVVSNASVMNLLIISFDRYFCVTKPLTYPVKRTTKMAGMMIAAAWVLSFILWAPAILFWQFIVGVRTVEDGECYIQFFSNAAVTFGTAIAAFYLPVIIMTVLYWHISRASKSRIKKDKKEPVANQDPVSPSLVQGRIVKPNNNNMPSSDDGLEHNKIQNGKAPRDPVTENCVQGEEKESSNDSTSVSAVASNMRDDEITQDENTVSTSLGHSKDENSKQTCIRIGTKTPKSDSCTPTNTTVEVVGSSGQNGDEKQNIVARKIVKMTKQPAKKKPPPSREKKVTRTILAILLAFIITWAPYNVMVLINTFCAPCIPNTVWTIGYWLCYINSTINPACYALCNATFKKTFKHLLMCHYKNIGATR
METHOD DESCRIPTION: Displacement of [3H]AF-DX384 from human recombinant M2 receptor incubated for 1 hr by radiometric scintillation counting analysis
RECORDED METRIC: Kd

Ask: // fetch Kd given entry `C[C@H](CN1CCC[C@@H]1C)NC(=O)c1ccc(-c2noc(C(F)(F)F)n2)cc1`
Result: > 5 µM
